Cited source: patent US20130123367A1

Tested on: HL60 (Acute promyelocytic leukemia)
protocolDescription: Cell viability assay using EZ4U viability kit, HL60
Assay type: cell-based
conditionDetails: Homo sapiens, HL-60, 24 h incubation, read-out: IC50 (nM) HL60 24 h
Catalogue of compounds with associated IC50
Give the number first and the unit second.

In [3]: df
Out[3]:
                                   compound  recordedvalue
0  COc1ccccc1/C=C/C=C/C(=O)c1cc(OC)c(OC)c(OC)c1 [Compound 1]         490 nM

[ask] // IC50 lookup, key: CCOc1ccccc1C(=O)/C=C/c1ccc2ccccc2c1 [Compound 22]
[reply] 10 nM

----------
Tested on: melanoma cell line 518A2
protocolDescription: Cell proliferation assay using crystal violet, 518A2
Assay type: cell-based
conditionDetails: Homo sapiens, 518A2; crystal violet assay; n = 3; 48 h incubation
observationType: IC50 (nM)
Write the number in nM without appending the unit.

Some solved cases for reference:
>>> df
                                smilesentry               studytarget  recordedvalue
0       CCOc1ccccc1C(=O)/C=C/c1ccc2ccccc2c1  melanoma cell line 518A2             40
1  COc1ccccc1/C=C/C=C/C(=O)c1cc(OC)c(OC)c(OC)c1  melanoma cell line 518A2            150
2  COc1cc(C(=O)/C=C/C=C/c2ccccc2SC)cc(OC)c1OC  melanoma cell line 518A2            160

Proceeding to the next compound to report its IC50.
[ask] State its IC50 on melanoma cell line 518A2: COc1ccccc1/C=C/C=C/C(=O)c1cc(OC)c(O)c(OC)c1
[reply] 2750

----------
Tested on: SU-DHL-9 (Non Hodgkin's lymphoma)
protocolDescription: Cell viability assay using EZ4U viability kit, SU-DHL-9
Type: cell-based
conditionDetails: 24 h incubation, read-out: IC50 (nM) SU-DHL-9 24 h
observationType: IC50 (nM)
Write the number in nM without appending the unit.

>>> df
                                smilesentry                        studytarget  recordedvalue
0  COc1ccccc1/C=C/C=C/C(=O)c1cc(OC)c(OC)c(OC)c1  SU-DHL-9 (Non Hodgkin's lymphoma)             60

[ask] // IC50 lookup, key: CCOc1ccccc1C(=O)/C=C/c1ccc2ccccc2c1
[reply] 30

----------
System: breast cancer cell line MDA MB231
protocolDescription: Crystal violet assay, MDA MB231
Assay type: cell-based
conditionDetails: Homo sapiens, MDA-MB-231, n = 3
observationType: IC50 (nM)
Write the number in nM without appending the unit.

[ask] // IC50 lookup, key: COc1ccccc1/C=C/C=C/C(=O)c1cc(OC)c(OC)c(OC)c1
[reply] 630
